tested on: RPS6KA4(Kin.Dom.1-N-terminal); conditions: concentration: 1 μM,replicates: in singlicate; n = 1;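 also: KINOMEscan kinase panel screen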
readout_kind: %Inh

Return reported %Inh; argument: `C[C@@H](Oc1cc(-c2cnn(C3CCNCC3)c2)cnc1N)c1c(Cl)ccc(F)c1Cl` 0%

Same thing, different molecule: CCN(CC)CCOc1ccc(Nc2ncc3cc(-c4c(Cl)cccc4Cl)c(=O)n(C)c3n2)cc1 [SB-601273] 0%

Same thing, different molecule: Cl.Cl.NC[C@H](Cc1ccc(C(F)(F)F)cc1)NC(=O)c1cc(Br)c(-c2ccnc3[nH]ccc23)s1 [GSK1487252] 41%

Same thing, different molecule: CN(C)CCOc1ccc(-c2cc(-c3c[nH]nc3-c3ccccn3)ccn2)cc1 [GW835314] 0%

Same thing, different molecule: Cc1occc1-c1nc(N)c(OC[C@@H](N)Cc2c[nH]c3ccccc23)cc1-c1cc2c(C)n[nH]c2cn1 [GSK1660450] 7%

Same thing, different molecule: CN(C)CC(O)COc1ccc(Nc2nccc(-c3cnn4nc(N5CCOCC5)ccc34)n2)cc1 (stereo not drawn) [GW767488] 0%

Same thing, different molecule: `Cc1cc(C(=O)Nc2ccc(Oc3ccc4nc(NC(=O)C5CC5)cn4n3)cc2)nn1-c1ccccc1` 20%

Same thing, different molecule: `O=C(NCCCN1CCOC1=O)c1cnc(NCc2cc(Cl)ccc2Cl)nc1NC1CCCC1` 10%

Same thing, different molecule: Cc1ccc2c(-c3ccncc3)c(-c3ccc(F)cc3)nn2c1.Cl [GW461484] 18%

Same thing, different molecule: `CNC(=O)c1ccccc1Sc1ccc2c(/C=C/c3ccccn3)n[nH]c2c1` 0%

Same thing, different molecule: Cc1ccc(-n2nc(C(C)(C)C)cc2NC(=O)Nc2ccc(OCCN3CCOCC3)c3ccccc23)cc1 [GW839464] 23%

Same thing, different molecule: Nc1nc(Nc2ccccc2)cc(-c2ccc3c(N)n[nH]c3c2)n1 [GSK2225749] 0%

Same thing, different molecule: COc1ccc(C[C@@H](CN)NC(=O)c2cc(Br)c(-c3ccnc4[nH]ccc34)s2)cc1.Cl.Cl [GSK1389063] 68%

Same thing, different molecule: Cc1n[nH]c2ccc(-c3cc(OC[C@@H](N)Cc4ccccc4)cnc3-c3ccoc3)cc12.O=C(O)C(F)(F)F.O=C(O)C(F)(F)F [GSK507358] 0%

Same thing, different molecule: CC(C)Nc1cc(-c2ccc3c(N)n[nH]c3c2)nc(N)n1 [GSK2221681] 0%

###

system: RIPK4; settings: concentration: 1 μM,replicates: in singlicate; n = 1
Assign %Inh to each entry below.
Use % as the unit, but write only the number.

Return reported %Inh; argument: `CCN(CC)CCOc1ccc(Nc2ncc3cc(-c4c(Cl)cccc4Cl)c(=O)n(C)c3n2)cc1` 18

Same thing, different compound: CN(C)CC(O)COc1ccc(Nc2nccc(-c3cnn4nc(N5CCOCC5)ccc34)n2)cc1 (stereo not shown) 55

Same thing, different compound: `Nc1nc(Nc2ccccc2)cc(-c2ccc3c(N)n[nH]c3c2)n1` 44

Same thing, different compound: `Cc1occc1-c1nc(N)c(OC[C@@H](N)Cc2c[nH]c3ccccc23)cc1-c1cc2c(C)n[nH]c2cn1` 4

Same thing, different compound: `Cl.Cl.NC[C@H](CC1CCCCC1)NC(=O)c1cc(Br)c(-c2ccnc3[nH]ccc23)s1` 20

Same thing, different compound: `O=C(NCCNc1ccnc(NCc2ccc(F)cc2)n1)c1cc2ccccc2s1` 5

Same thing, different compound: `Cc1cc2cn[nH]c2cc1-c1cccc2c(N)c(C(N)=O)nnc12` 84

Same thing, different compound: `Cl.Oc1cc(-c2nc(-c3ccccc3)[nH]c2-c2ccncc2)ccc1Cl` 17

Same thing, different compound: `C[C@H]1Oc2cc(cnc2N)-c2c(nn(C)c2C#N)CN(C)C(=O)c2ccc(F)cc21` 0

Same thing, different compound: `CNC(=O)c1ccccc1Sc1ccc2c(/C=C/c3ccccn3)n[nH]c2c1` 0
